For each entry below, report its switch fluorescence ratio value.
Tested on: ATP;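 also: ATP exposure 15 min at 22 °C before imaging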
Experiment: switch fluorescence ratio, 500 uM ATP over buffer (Cy3 cluster intensity, sum of 5 cycles each) (fold (ratio)); higher = stronger signal-on switching upon ATP binding; sequences stand for … in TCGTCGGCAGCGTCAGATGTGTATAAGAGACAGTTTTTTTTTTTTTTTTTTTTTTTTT…TC
Conditions: aptamer strand: ATP DNA aptamer (quencher-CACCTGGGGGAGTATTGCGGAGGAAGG + anchor), 100 nM annealed; ATP concentration: 500 uM
No unit in the answer, please; the number alone is enough.

Given item AAAAGGTAAA , the value recorded as its switch fluorescence ratio is 1.02

Given item GCTTGAGGCT , the value recorded as its switch fluorescence ratio is 0.959

Given item GCAAAAGGAA , the value recorded as its switch fluorescence ratio is 0.975

Given item TAGGGGGTT , the value recorded as its switch fluorescence ratio is 1.01

Given item TTTTATAAAA , the value recorded as its switch fluorescence ratio is 1.03

Given item AGAATGGGCA , the value recorded as its switch fluorescence ratio is 0.989

Given item CCGGCTTTCC , the value recorded as its switch fluorescence ratio is 1.15

Given item TGTGCATCT , the value recorded as its switch fluorescence ratio is 1.01

Given item TGAACTGCTG , the value recorded as its switch fluorescence ratio is 1.02

Given item TTTTCTGACC , the value recorded as its switch fluorescence ratio is 1.02

Given item CGAGTTATTG , the value recorded as its switch fluorescence ratio is 1.08

Given item TGTTATATGC , the value recorded as its switch fluorescence ratio is 1

Given item CCATATTGTG , the value recorded as its switch fluorescence ratio is 1.02

Given item GGGTTGAGGA , the value recorded as its switch fluorescence ratio is 1.01

Given item AGTGAGTCGG , the value recorded as its switch fluorescence ratio is 0.979

Given item GGGTTGTTTT , the value recorded as its switch fluorescence ratio is 0.994

Given item ATTAAATCAG , the value recorded as its switch fluorescence ratio is 1.01

Given item AAGAAGGGAG , the value recorded as its switch fluorescence ratio is 0.982

Given item TATTCAGGGT , the value recorded as its switch fluorescence ratio is 1.01

Given item TTATTAGTGC , the value recorded as its switch fluorescence ratio is 1.03

Given item AGCTGTACTG , the value recorded as its switch fluorescence ratio is 1.09

Given item TCGGGATACT , the value recorded as its switch fluorescence ratio is 1.86

Given item CATTGAATCT , the value recorded as its switch fluorescence ratio is 1.02

Given item TGCAACCTCC , the value recorded as its switch fluorescence ratio is 2.29

====

System: ATP;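 also: ATP exposure 15 min at 22 °C before imaging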
Assay: switch fluorescence ratio, 500 uM ATP over buffer (Cy3 cluster intensity, sum of 5 cycles each) (fold (ratio)); higher = stronger signal-on switching upon ATP binding; sequences stand for … in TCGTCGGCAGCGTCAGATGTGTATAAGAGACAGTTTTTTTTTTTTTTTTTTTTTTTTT…TC
Conditions: aptamer strand: ATP DNA aptamer (quencher-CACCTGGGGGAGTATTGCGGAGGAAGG + anchor), 100 nM annealed; ATP concentration: 500 uM
For each entry below, report its switch fluorescence ratio value.
No unit in the answer, please; the number alone is enough.

Given item GTAATAGGTC , the value recorded as its switch fluorescence ratio is 1.01

Given item ACGGGCAACG , the value recorded as its switch fluorescence ratio is 0.974

Given item AACGTATGTT , the value recorded as its switch fluorescence ratio is 0.99

Given item TGTTGTGAGG , the value recorded as its switch fluorescence ratio is 0.997

Given item AGGTGTTGGT , the value recorded as its switch fluorescence ratio is 1.03

Given item TCTGTCTCTG , the value recorded as its switch fluorescence ratio is 1.01

Given item CGCTTCCGGG , the value recorded as its switch fluorescence ratio is 1.37

Given item GTTCTTTTGG , the value recorded as its switch fluorescence ratio is 0.973

Given item CATTAAGGTT , the value recorded as its switch fluorescence ratio is 0.996

Given item TGCGGGGGTT , the value recorded as its switch fluorescence ratio is 1.02

Given item ATGGCCTATA , the value recorded as its switch fluorescence ratio is 1.01

Given item ATGACTTCGG , the value recorded as its switch fluorescence ratio is 0.99

Given item CGAGAGCCAC , the value recorded as its switch fluorescence ratio is 1.13

Given item CGCGGGGGGG , the value recorded as its switch fluorescence ratio is 1

Given item CGATGTTGGG , the value recorded as its switch fluorescence ratio is 0.99

Given item GTATATAAGT , the value recorded as its switch fluorescence ratio is 0.98

Given item TAATACTTAT , the value recorded as its switch fluorescence ratio is 0.994

Given item CGGGTGGCCT , the value recorded as its switch fluorescence ratio is 1

Given item AAAGGGGTGC , the value recorded as its switch fluorescence ratio is 1.05

Given item GGGTGATGTA , the value recorded as its switch fluorescence ratio is 0.996

Given item ACGCGCCTGG , the value recorded as its switch fluorescence ratio is 1.05

Given item GTGTATCCGT , the value recorded as its switch fluorescence ratio is 0.994

Given item GTCGGCGTAA , the value recorded as its switch fluorescence ratio is 0.998

Given item AACATACAGG , the value recorded as its switch fluorescence ratio is 1.28

Given item TTGGAGACGG , the value recorded as its switch fluorescence ratio is 1.02

Given item ATAGGAACTT , the value recorded as its switch fluorescence ratio is 1.02

Given item AAGCCTAATG , the value recorded as its switch fluorescence ratio is 0.996

Given item CGTGCTGTTA , the value recorded as its switch fluorescence ratio is 0.98

Given item TGGACCAAAA , the value recorded as its switch fluorescence ratio is 1.03

Given item TTCTTTAGGG , the value recorded as its switch fluorescence ratio is 1.16

Given item AAAAGTCCGC , the value recorded as its switch fluorescence ratio is 1.45

Given item ACAAGATACA , the value recorded as its switch fluorescence ratio is 1.03

Given item GAACCGGGTT , the value recorded as its switch fluorescence ratio is 0.999

Given item CGAACGAAAA , the value recorded as its switch fluorescence ratio is 0.992

Given item ACGCCACATT , the value recorded as its switch fluorescence ratio is 1.55

Given item GAGTGTAGTC , the value recorded as its switch fluorescence ratio is 1.06
